These entries and their values trace back to patent US20080058349A1.

target: human β-Secretase (Homo sapiens, UniProt P56817); construct: The soluble part of the human β-Secretase (AA 1-AA 460) was cloned; made in house; test: TR-FRET assay; type: biochemical; details: soluble human β-Secretase (sBACE-Fc), substrate (Europium)[…](Qsy7) 100 nM, pH 4.5
Sequence (P56817 22-460): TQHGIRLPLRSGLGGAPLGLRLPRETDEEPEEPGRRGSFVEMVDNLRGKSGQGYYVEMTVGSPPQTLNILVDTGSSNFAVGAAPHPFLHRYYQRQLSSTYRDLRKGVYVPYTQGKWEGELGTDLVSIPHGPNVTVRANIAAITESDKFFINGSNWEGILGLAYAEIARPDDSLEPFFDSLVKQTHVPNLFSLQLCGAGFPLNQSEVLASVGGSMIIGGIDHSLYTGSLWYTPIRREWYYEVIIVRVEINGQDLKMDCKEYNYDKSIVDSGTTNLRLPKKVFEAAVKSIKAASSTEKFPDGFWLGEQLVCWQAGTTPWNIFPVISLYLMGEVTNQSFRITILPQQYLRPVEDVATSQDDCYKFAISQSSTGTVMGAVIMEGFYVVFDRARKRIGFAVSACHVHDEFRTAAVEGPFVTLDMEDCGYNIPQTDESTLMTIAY
Counter-ions that a name gives are not always drawn.
ASSAY_ENDPOINT: IC50 (µM)

These recorded examples may help you get a feel for the data.
COc1cccc(-c2cccc(C3(c4cccc(OS(C)(=O)=O)c4)N=C(N)N4CCCN=C43)c2)c1 (stereo not shown)    0.252
COc1ccc(C2(c3cccc(-c4cc(Cl)cc(Cl)c4)c3)N=C(N)N3CC(C(=O)O)CN=C32)cc1 (mixture of isomers)    0.034

1: NC1=NC(c2ccccc2)(c2cccc(-c3cc(Cl)cc(Cl)c3)c2)C2=NCCCN12 (stereo not shown) [Example 102, hydrochloride]
2: COc1ccc(C2(c3cccc(-c4cc(Cl)cc(Cl)c4)c3)N=C(N)N3CC(F)(F)CN=C32)cc1 (stereo not shown)
3: NC1=NC(c2ccc(OS(=O)(=O)C(F)(F)F)cc2)(c2cccc(-c3cccc(Cl)c3)c2)C2=NCCN12 (stereo not shown)
4: NC1=NC(c2cccc(OS(=O)(=O)C3CC3)c2)(c2cccc(-c3cc(Cl)cc(Cl)c3)c2)C2=NCCCN12 (stereo not shown)
5: COc1ccc(C2(c3cccc(-c4cc(Cl)cc(Cl)c4)c3)N=C(N)N3CC(NC(C)=O)CN=C32)cc1 (mixture of isomers)
// query Please list the entries, largest IC50 first. # output: labels, in the requested order
// result 3, 1, 4, 2, 5

====

biological target: human β-Secretase (Homo sapiens, UniProt P56817); construct: The soluble part of the human β-Secretase (AA 1-AA 460) was cloned; made in house; assay: TR-FRET assay; type: biochemical; settings: soluble human β-Secretase (sBACE-Fc), substrate (Europium)[…](Qsy7) 100 nM, pH 4.5;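 further: sBACE-Fc from HEK 293 cells, compound preincubated 10 min, then 15 min substrate reaction at RT in darkness, 5% DMSO, DMSO control as 100% and enzyme-free wells as 0%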
Counter-ions that a name gives are not always drawn.
ASSAY_ENDPOINT: IC50 (nM)

These recorded examples may help you get a feel for the data.
NC1=NC(c2ccc(OS(=O)(=O)C(F)(F)F)cc2)(c2cccc(-c3cccc(Cl)c3)c2)C2=NCCCN12 (stereo not drawn) [Example 99, acetate]    113
NC1=NC(c2ccccc2)(c2cccc(-c3cccc(Cl)c3)c2)C2=NCCCN12 (stereo not drawn) [Example 31, hydrochloride]    255
COc1ccc(C2(c3cccc(-c4cc(Cl)cc(Cl)c4)c3)N=C(N)N3CC(F)CN=C32)cc1 (stereo not drawn)    34
COc1ccc(C2(c3cccc(-c4cc(Cl)cc(Cl)c4)c3)N=C(N)N3CC(NS(C)(=O)=O)CN=C32)cc1 (mixture of isomers)    17

A: CS(=O)(=O)Oc1cccc(C2(c3cccc(-c4cccc(Cl)c4)c3)N=C(N)N3CCCN=C32)c1 (stereo not drawn)
B: COc1ccc(C2(c3cccc(-c4cc(Cl)cc(Cl)c4)c3)N=C(N)N3CC(C#N)CN=C32)cc1 (mixture of isomers)
// query // max by IC50 over [ A , B ] Identify your pick by its label.
// result A

====

molecular target: human β-Secretase (Homo sapiens); construct: The soluble part of the human β-Secretase (AA 1-AA 460) was cloned; made in house; experiment: TR-FRET assay; format: biochemical; settings: soluble human β-Secretase (sBACE-Fc), substrate (Europium)[…](Qsy7) 100 nM, pH 4.5
Counter-ions that a name gives are not always drawn.
ASSAY_ENDPOINT: IC50 (nM)

These recorded examples may help you get a feel for the data.
CCCS(=O)(=O)Oc1cccc(C2(c3cccc(-c4cccc(OC)c4)c3)N=C(N)N3CCCN=C32)c1 (centres unmarked) [Example 185]    106
COc1ccc(C2(c3cccc(-c4cc(Cl)cc(Cl)c4)c3)N=C(N)N3C2=NCC[C@H]3C(=O)O)cc1 (mixture of isomers) [Example 131]    159
CS(=O)(=O)Oc1cccc(C2(c3cccc(-c4cc(C(F)(F)F)cc(C(F)(F)F)c4)c3)N=C(N)N3CCCN=C32)c1 (centres unmarked) [Example 176]    1200
CCCS(=O)(=O)Oc1cccc(C2(c3cccc(-c4cc(Cl)cc(Cl)c4)c3)N=C(N)N3CCCN=C32)c1 (centres unmarked) [Example 184]    69
COc1cccc(C2(c3cccc(-c4cc(Cl)cc(Cl)c4)c3)N=C(N)N3CCCN=C32)c1 (centres unmarked) [Example 178]    92
COc1ccc(C2(c3cccc(-c4cc(Cl)cc(Cl)c4)c3)N=C(N)N3CC(S(C)(=O)=O)CN=C32)cc1 (centres unmarked) [Example 124]    39
NC1=NC(c2cccc(OS(=O)(=O)C(F)(F)F)c2)(c2cccc(-c3cccc(Cl)c3)c2)C2=NCCCN12 (centres unmarked) [Example 177]    246
COc1cc(OS(C)(=O)=O)cc(-c2cccc(C3(c4ccccc4)N=C(N)N4CCCN=C43)c2)c1 (centres unmarked) [Example 103, methanesulfonate hydrochloride]    727

a: CS(=O)(=O)Oc1cccc(C2(c3cccc(-c4cc(Cl)cc(Cl)c4)c3)N=C(N)N3CCCN=C32)c1 (centres unmarked) [Example 181]
b: COc1ccc(F)c(-c2cccc(C3(c4ccccc4)N=C(N)N4CCCN=C43)c2)c1 (centres unmarked) [Example 100, hydrochloride]
c: COc1ccc(C2(c3cccc(-c4cc(Cl)cc(Cl)c4)c3)N=C(N)N3CC(O)CN=C32)cc1 (mixture of isomers) [Example 125]
d: COc1cccc(-c2cccc(C3(c4ccccc4)N=C(N)N4CCCN=C43)c2)c1 (centres unmarked) [Example 30, hydrochloride]
e: COc1ccc(C2(c3cccc(-c4cc(Cl)cc(Cl)c4)c3)N=C(N)N3CC(OC)CN=C32)cc1 (mixture of isomers) [Example 126]
// query Please list the entries, largest IC50 first. # output: labels, in the requested order
// result d, b, a, e, c
